- measurement.protocol: Cytotoxicity against human HeLa cells assessed as cell viability at 5 uM after 48 hrs by MTT assay relative to control
- Type: cell-based
- reported.conditions: read-out: Activity
value.type: viability at 48 h, 5 µM (%)
One number for each entry, in %.

// lookup viability at 48 h, 5 µM for CC(=O)OC[C@H]1OC(OC(C)=O)[C@H](NC(=O)C(F)(F)F)[C@@H](OC(C)=O)[C@@H]1OC(C)=O (stereo partly specified)
101

---

- measurement.protocol: Cytotoxicity against human HeLa cells assessed as cell viability at 50 uM after 48 hrs by MTT assay relative to control
- Type: cell-based
- reported.conditions: read-out: Activity
value.type: viability at 48 h, 50 µM

Which viability at 48 h, 50 µM reading was recorded for the compound CC(=O)OC[C@H]1OC(OC(C)=O)[C@H](NC(=O)C(F)(F)F)[C@@H](OC(C)=O)[C@@H]1OC(C)=O (stereo partly specified) ?
84.1%

---

- measurement.protocol: Cytotoxicity against mouse NIH/3T3 cells assessed as cell viability at 5 uM after 48 hrs by MTT assay relative to control
- Assay type: cell-based, NIH3T3
- reported.conditions: read-out: Activity
value.type: viability at 48 h, 5 µM
Show the value, then the unit it is measured in.

Can you share its viability at 48 h, 5 µM? I mean this compound: CC(=O)OC[C@H]1OC(OC(C)=O)[C@H](NC(=O)C(F)(F)F)[C@@H](OC(C)=O)[C@@H]1OC(C)=O (stereo partly specified)
97.6%

---

- measurement.protocol: Cytotoxicity against human HeLa cells assessed as cell viability at 100 uM after 48 hrs by MTT assay relative to control
- Format: cell-based
- reported.conditions: read-out: Activity
value.type: viability at 48 h, 100 µM (%)
Answers are plain numbers, in %.

Quick check: viability at 48 h, 100 µM of CC(=O)OC[C@H]1OC(OC(C)=O)[C@H](NC(=O)C(F)(F)F)[C@@H](OC(C)=O)[C@@H]1OC(C)=O (stereo partly specified) ?
76.1

---

- measurement.protocol: Cytotoxicity against mouse NIH/3T3 cells assessed as cell viability at 100 uM after 48 hrs by MTT assay relative to control
- Format: cell-based, NIH3T3
- reported.conditions: read-out: Activity
value.type: viability at 48 h, 100 µM (%)
Give bare numbers, in %.

Using the record for CC(=O)OC[C@H]1OC(OC(C)=O)[C@H](NC(=O)C(F)(F)F)[C@@H](OC(C)=O)[C@@H]1OC(C)=O (stereo partly specified) , report its viability at 48 h, 100 µM.
35.9

---

- measurement.protocol: Cytotoxicity against human MCF7 cells assessed as cell viability at 5 uM after 48 hrs by MTT assay relative to control
- Format: cell-based
- reported.conditions: read-out: Activity
value.type: viability at 48 h, 5 µM (%)
Numbers only, in %.

Reported viability at 48 h, 5 µM, compound CC(=O)OC[C@H]1OC(OC(C)=O)[C@H](NC(=O)C(F)(F)F)[C@@H](OC(C)=O)[C@@H]1OC(C)=O (stereo partly specified) : ____
98.3

Ref: ChEMBL document CHEMBL4422670
